pIC50 listing for selected molecules.
SUBJECT OF TEST: hMAO-B (Homo sapiens)
Sequence (P27338 1-520): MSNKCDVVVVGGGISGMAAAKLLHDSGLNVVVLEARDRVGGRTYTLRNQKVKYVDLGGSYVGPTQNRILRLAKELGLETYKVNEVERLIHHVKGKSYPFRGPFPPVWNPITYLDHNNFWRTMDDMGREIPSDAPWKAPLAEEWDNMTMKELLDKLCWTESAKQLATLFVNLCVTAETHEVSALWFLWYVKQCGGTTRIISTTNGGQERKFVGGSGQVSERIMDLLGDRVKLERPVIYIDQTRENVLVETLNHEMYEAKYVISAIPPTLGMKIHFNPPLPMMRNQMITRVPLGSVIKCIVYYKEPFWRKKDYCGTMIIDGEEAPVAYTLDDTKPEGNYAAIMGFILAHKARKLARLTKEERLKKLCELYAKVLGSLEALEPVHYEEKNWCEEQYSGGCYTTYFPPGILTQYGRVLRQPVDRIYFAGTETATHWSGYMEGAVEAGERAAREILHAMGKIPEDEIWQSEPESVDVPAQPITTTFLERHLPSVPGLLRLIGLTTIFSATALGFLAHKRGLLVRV
pIC50: −log10 of the molar value.
MEASUREMENT KIND: pIC50

{"columns": ["MOLECULE", "SUBJECT OF TEST", "OBSERVED VALUE"],
 "data": [
  ["C#CCN(C)c1nc(NCCCC)c2ccc(Cl)cc2n1 [II-6e]", "hMAO-B (Homo sapiens)", 5.44],
  ["C#CCN(C)c1nc(NC2CCCCC2)c2ccccc2n1 [I-6h]", "hMAO-B (Homo sapiens)", 5.06],
  ["C#CCN(C)c1nc(NC2CCCCC2)c2ccc(Cl)cc2n1 [II-6h]", "hMAO-B (Homo sapiens)", 6.48]
]}

====

Dehydrogenase Activity (% of Control) listing for selected compounds.
System: SH-SY5Y cells
MEASUREMENT DESCRIPTION: dehydrogenase activity, WST-1 test
Format: cell-based, human
CONDITION: 100 µM, 6 h, mean ± SD

{"columns": ["COMPOUND STRING", "Dehydrogenase Activity (% of Control)"],
 "data": [
  ["C#CCN(C)c1nc(NCCCC)c2ccccc2n1", "44 ± 13 % of Control"],
  ["C#CCN(C)c1nc(NC2CCCCC2)c2ccccc2n1", "62 ± 10 % of Control"],
  ["C#CCN(C)c1nc(NC2CCCCC2)c2ccc(Cl)cc2n1", "40 ± 3 % of Control"],
  ["C#CCN(C)c1nc(NCCCC)c2ccc(Cl)cc2n1", "63 ± 9 % of Control"],
  ["C#CCN(C)c1nc(N)c2cc(OC)ccc2n1", "107 ± 8 % of Control"]
]}

====

SUBJECT OF TEST: GluN1/GluN2B receptor (Homo sapiens, UniProt Q05586+Q13224)
Construct: expressed in transfected cells; host or cells: HEK293
Sequence (Q13224 27-1484, other chains not shown): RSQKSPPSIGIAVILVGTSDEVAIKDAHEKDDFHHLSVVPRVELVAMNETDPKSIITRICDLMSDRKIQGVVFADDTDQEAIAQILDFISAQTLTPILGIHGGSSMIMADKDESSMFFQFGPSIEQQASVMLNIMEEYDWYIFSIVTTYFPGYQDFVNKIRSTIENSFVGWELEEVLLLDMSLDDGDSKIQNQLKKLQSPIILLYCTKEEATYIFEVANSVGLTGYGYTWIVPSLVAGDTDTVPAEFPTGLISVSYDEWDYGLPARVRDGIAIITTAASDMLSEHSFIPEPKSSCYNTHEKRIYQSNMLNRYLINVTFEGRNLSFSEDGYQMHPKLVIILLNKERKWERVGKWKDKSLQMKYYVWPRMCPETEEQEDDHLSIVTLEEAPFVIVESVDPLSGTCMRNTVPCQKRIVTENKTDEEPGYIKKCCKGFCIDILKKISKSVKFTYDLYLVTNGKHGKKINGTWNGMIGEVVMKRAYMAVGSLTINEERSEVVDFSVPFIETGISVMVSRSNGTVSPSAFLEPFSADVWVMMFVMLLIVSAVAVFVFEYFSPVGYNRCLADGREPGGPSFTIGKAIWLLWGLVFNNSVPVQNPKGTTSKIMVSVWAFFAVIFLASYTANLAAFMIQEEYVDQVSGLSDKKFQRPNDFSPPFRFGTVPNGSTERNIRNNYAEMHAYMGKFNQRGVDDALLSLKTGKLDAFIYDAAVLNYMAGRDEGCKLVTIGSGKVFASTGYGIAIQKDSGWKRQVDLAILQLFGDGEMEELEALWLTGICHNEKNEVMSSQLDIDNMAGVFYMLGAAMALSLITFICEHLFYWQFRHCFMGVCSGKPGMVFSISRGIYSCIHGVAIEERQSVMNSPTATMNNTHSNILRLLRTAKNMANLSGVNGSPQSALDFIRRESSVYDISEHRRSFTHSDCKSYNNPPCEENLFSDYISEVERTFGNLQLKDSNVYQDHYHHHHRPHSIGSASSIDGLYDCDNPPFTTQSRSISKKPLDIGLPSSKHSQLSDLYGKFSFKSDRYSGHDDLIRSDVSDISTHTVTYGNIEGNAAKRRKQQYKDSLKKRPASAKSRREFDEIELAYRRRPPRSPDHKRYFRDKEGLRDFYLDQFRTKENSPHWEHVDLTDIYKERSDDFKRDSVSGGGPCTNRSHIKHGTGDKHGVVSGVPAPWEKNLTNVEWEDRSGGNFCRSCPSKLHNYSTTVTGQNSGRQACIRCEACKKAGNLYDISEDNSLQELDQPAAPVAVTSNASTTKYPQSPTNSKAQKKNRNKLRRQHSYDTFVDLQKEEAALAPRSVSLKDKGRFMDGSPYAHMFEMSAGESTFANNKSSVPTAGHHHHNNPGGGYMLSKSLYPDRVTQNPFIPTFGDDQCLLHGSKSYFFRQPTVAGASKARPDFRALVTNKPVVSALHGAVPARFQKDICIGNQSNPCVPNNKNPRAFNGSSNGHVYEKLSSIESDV
MEASUREMENT DESCRIPTION: whole-cell patch-clamp on HEK293 cells expressing GluN1/GluN2B NMDAR
Type: cell-based
CONDITION: HEK293, 10 µM, −60 mV, ± SEM (n = 5–6), 100% = full inhibition; read-out: Relative inhibition (RI) of GluN1/GluN2B NMDAR
inhibition at 10 µM listing for selected molecules.

{"columns": ["MOLECULE", "SUBJECT OF TEST", "inhibition at 10 µM"],
 "data": [
  ["C#CCN(C)c1nc(NC2CCCCC2)c2ccc(Cl)cc2n1", "GluN1/GluN2B receptor (Homo sapiens, UniProt Q05586+Q13224)", "63.5%"],
  ["C#CCN(C)c1nc(NC2CCCCC2)c2ccccc2n1", "GluN1/GluN2B receptor (Homo sapiens, UniProt Q05586+Q13224)", "49.3%"],
  ["COc1ccc2nc3c(c(N)c2c1)CCCC3 [7-MEOTA, reference compound]", "GluN1/GluN2B receptor (Homo sapiens, UniProt Q05586+Q13224)", "~60%"],
  ["C#CCN(C)c1nc(N)c2cc(OC)ccc2n1", "GluN1/GluN2B receptor (Homo sapiens, UniProt Q05586+Q13224)", "18.1%"],
  ["C#CCN(C)c1nc(NCCCC)c2ccccc2n1", "GluN1/GluN2B receptor (Homo sapiens, UniProt Q05586+Q13224)", "30.1%"],
  ["C#CCN(C)c1nc(NCCCC)c2ccc(Cl)cc2n1", "GluN1/GluN2B receptor (Homo sapiens, UniProt Q05586+Q13224)", "33.8%"]
]}
